// data source = PubChem BioAssay (NCI)

# Test system: SF-295 CNS
# Assay info: NCI tumour cell line growth inhibition, 48 h; in the data active = GI50 below about 0.43 µM; inactive = the rest
Allowed answers: true (1) for active, false (0) for inactive

{"Compound": "COc1ccc(-c2c(Nc3ccccn3)nc3c(C4=CCCCC4)c(-c4ccccc4)[nH]n3c2=O)cc1", "Target or system": "SF-295 CNS", "Label value": "false (0)"}
{"Compound": "COC(=O)C(C)NP(=O)(OCc1cccc(Cn2cnc3c(N)ncnc32)c1)Oc1ccccc1 (centres undefined)", "Target or system": "SF-295 CNS", "Label value": "false (0)"}
{"Compound": "C=CCN(CC=C)Cc1c[nH]c2ccccc12", "Target or system": "SF-295 CNS", "Label value": "false (0)"}
{"Compound": "COc1nc(N)nc2nc[nH]c12", "Target or system": "SF-295 CNS", "Label value": "false (0)"}
{"Compound": "CC(C)(C)OC(=O)CC(NC(=O)OCc1ccccc1)NC(=O)OC(C)(C)C (centres undefined)", "Target or system": "SF-295 CNS", "Label value": "false (0)"}
{"Compound": "O=C1NC(=O)N(S(=O)(=O)c2cc(C(=O)Nc3ccc(Cl)cc3)c(Cl)cc2S)S(=O)(=O)N1", "Target or system": "SF-295 CNS", "Label value": "false (0)"}
{"Compound": "CCCCCCCCCCCCOC1C(C(COC2OC(C(O)CO)C3OC(C)(C)OC23)OC(=O)Nc2ccccc2)OC2OC(C)(C)OC21 (centres undefined)", "Target or system": "SF-295 CNS", "Label value": "false (0)"}
{"Compound": "CC1=C(C(=O)Nc2ccc3[nH]ncc3c2)C(c2ccc(F)cc2)N=C(c2ccc(C(F)(F)F)nc2)N1 (centres undefined)", "Target or system": "SF-295 CNS", "Label value": "false (0)"}

Next item in the queue.
Ask: Hey, what did the test say about O=C(O)c1cn(C2CC2)c2cc(N3CCN(C(=O)N(c4ccccc4)c4nc(-c5ccccc5)cs4)CC3)c(F)cc2c1=O ?
Result: true (1)

###

The reader will find reported TGI values listed item by item below.
# Tested on: DU-145 prostate
# Assay info: NCI tumour cell line growth inhibition, 48 h

Solved cases below.
{"Compound": "O=c1[nH]c2ccccc2c2oc3ccccc3c12", "TGI": "> 100 µM"}
{"Compound": "Cc1nc2ccccc2n1Cc1nnc(-c2ccccc2)o1", "TGI": "> 100 µM"}
{"Compound": "COc1ccc(OC/C(N)=N/NC(=O)c2ccncc2)cc1", "TGI": "> 100 µM"}
{"Compound": "CC(=O)O[C@H]([C@H](OC(C)=O)[C@H](C)OC(C)=O)[C@@H](/C=C/[C@H]1CC=CC(=O)O1)OC(C)=O", "TGI": "> 100 µM"}
{"Compound": "O=C1NC(=NCc2cccs2)O/C1=C\\c1ccc2ncccc2c1", "TGI": "> 25 µM"}
{"Compound": "O=C(CC1(O)C(=O)Nc2c(Cl)cc(Cl)cc21)c1cccc([N+](=O)[O-])c1 (stereo unspecified)", "TGI": "> 100 µM"}

Ask: With DU-145 prostate as the test system, provide measured TGI for this compound: CC[C@@H]1CC[C@@H]2[C@H](CC[C@]3(C)[C@@H](O[N+](=O)[O-])CC[C@@H]23)[C@H]1C(C)=O
Result: > 100 µM

Ask: With DU-145 prostate as the test system, provide measured TGI for this compound: O=c1c2ccccc2nc2n1CCc1c-2[nH]c2ccccc12
Result: 33.5 µM

Ask: With DU-145 prostate as the test system, provide measured TGI for this compound: C(=NC12CC3CC(CC(C3)C1)C2)C1CCCCC1
Result: > 100 µM

Ask: With DU-145 prostate as the test system, provide measured TGI for this compound: COc1ccc(Cn2c(Br)c3c(c2-c2cc(OC)c(OC)c(OC)c2)CCc2sc(N)nc2-3)cc1
Result: 7.43 µM

Ask: With DU-145 prostate as the test system, provide measured TGI for this compound: O=C1C[C@@H]2OCC=C3C[N+]4([O-])CC[C@]56c7ccccc7N1[C@H]5[C@H]2[C@H]3C[C@@H]64 (stereo partly specified)
Result: > 100 µM

Ask: With DU-145 prostate as the test system, provide measured TGI for this compound: N#CCc1nc(-c2cc3ccccc3oc2=O)cs1
Result: > 100 µM

Ask: With DU-145 prostate as the test system, provide measured TGI for this compound: CCc1nc(N)nc(N)c1-c1ccc(N2CCOCC2)c(N=[N+]=[N-])c1
Result: > 100 µM
